- TEST TARGET: human NTCP (Homo sapiens, UniProt Q14973)
- ASSAY: Screening taurocholate uptake assay (96-well, [14C]taurocholate, 10 µM drug)
- EXPERIMENTAL CONDITIONS: screen, 10 µM drug, taurocholate uptake
Counter-ions that a name gives are not always drawn.
READOUT NAME: B-score functional assay

> print(dat)
                                    compound                               test.target  recorded.result
 1  CC(=O)O[C@H]1CC[C@@]2(C)C(=CC[C@@H]3[C@@H]2CC[C@]2(C)C(=O)CC[C@@H]32)C1 [Dehydroisoandosterone 3-acetate]  human NTCP (Homo sapiens, UniProt Q14973)            0.002
 2  CNC1(C)C2CCC(C2)C1(C)C (centres unmarked) [Mecamylamine hydrochloride]  human NTCP (Homo sapiens, UniProt Q14973)           -0.591
 3  CC1(C)S[C@@H]2[C@H](NC(=O)Cc3ccccc3)C(=O)N2[C@H]1C(=O)O [Benzylpenicillin sodium]  human NTCP (Homo sapiens, UniProt Q14973)           -0.043
 4  NC1CCN(c2c(F)cc3c(=O)c(C(=O)O)cn(C4CC4)c3c2Cl)C1 (centres unmarked) [Clinafloxacin]  human NTCP (Homo sapiens, UniProt Q14973)           -0.349
 5  CCc1c(C)[nH]c2c1C(=O)C(CN1CCOCC1)CC2 (centres unmarked) [Molindone hydrochloride]  human NTCP (Homo sapiens, UniProt Q14973)           -0.958
 6  Cc1c(N(C)C)c(=O)n(-c2ccccc2)n1C [Amidopyrine]  human NTCP (Homo sapiens, UniProt Q14973)           -0.111
 7  O=C(O)COC(=O)Cc1ccccc1Nc1c(Cl)cccc1Cl [Aceclofenac]  human NTCP (Homo sapiens, UniProt Q14973)           -0.535
 8  CC1(C)O[C@@H]2C[C@H]3[C@@H]4C[C@H](F)C5=CC(=O)CC[C@]5(C)[C@H]4[C@@H](O)C[C@]3(C)[C@]2(C(=O)CO)O1 [Flurandrenolide]  human NTCP (Homo sapiens, UniProt Q14973)           -0.782
 9  CC(C)/N=c1\cc2n(-c3ccc(Cl)cc3)c3ccccc3nc-2cc1Nc1ccc(Cl)cc1 [Clofazimine]  human NTCP (Homo sapiens, UniProt Q14973)           -0.006
10  O=C1NCCN1c1ncc([N+](=O)[O-])s1 [Niridazole]  human NTCP (Homo sapiens, UniProt Q14973)           -1.225
11  CC(CNC1CCCCC1)OC(=O)c1ccccc1 (centres unmarked) [Hexylcaine hydrochloride]  human NTCP (Homo sapiens, UniProt Q14973)            0.196
12  CN(C)CCOC(C)(c1ccccc1)c1ccccn1 (centres unmarked) [Doxylamine succinate]  human NTCP (Homo sapiens, UniProt Q14973)            0.231
13  CC(=O)c1ccc2c(c1)N(CCCN(C)C)c1ccccc1S2.O=C(O)/C=C\C(=O)O [Acetopromazine maleate salt]  human NTCP (Homo sapiens, UniProt Q14973)             0.92
14  O=C1CN(/N=C/c2ccc(-c3ccc([N+](=O)[O-])cc3)o2)C(=O)[N-]1.[Na+] [Dantrolene sodium salt]  human NTCP (Homo sapiens, UniProt Q14973)           -0.011
15  Cc1ccc(C)c(OCCCC(C)(C)C(=O)O)c1 [Gemfibrozil]  human NTCP (Homo sapiens, UniProt Q14973)             0.85
16  CN(C)CCOC(=O)COc1ccc(Cl)cc1.Cl [Meclofenoxate hydrochloride]  human NTCP (Homo sapiens, UniProt Q14973)           -0.036
17  COc1ccccc1N1CCN(CC(O)COc2cccc3ccccc23)CC1.Cl.Cl (centres unmarked) [Naftopidil dihydrochloride]  human NTCP (Homo sapiens, UniProt Q14973)           -1.853

###

- TEST TARGET: human NTCP (Homo sapiens)
- ASSAY: Screening taurocholate uptake assay (96-well, [14C]taurocholate, 10 µM drug)
- EXPERIMENTAL CONDITIONS: screen, 10 µM drug, taurocholate uptake
Counter-ions that a name gives are not always drawn.
Measured B-score functional assay values are reported for all entries that follow.

MOLECULE	B-score functional assay
N[C@@H](C(=O)N[C@@H]1C(=O)N2C(C(=O)O)=C(Cl)CS[C@H]12)c1ccccc1.O [Cefaclor hydrate]	-0.668
O=P1(NCCCl)OCCCN1CCCl (centres unmarked) [Ifosfamide]	0.023
CCCCCCCCNC(C)C(O)c1ccc(SC(C)C)cc1 (centres unmarked) [Suloctidil]	4.189
O=C([O-])CCNC(=O)c1ccc(/N=N/c2ccc(O)c(C(=O)[O-])c2)cc1.[Na+].[Na+] [Balsalazide Sodium]	-0.35
CNNCc1ccc(C(=O)NC(C)C)cc1 [Procarbazine hydrochloride]	-0.792
Nc1nc(=O)c2nc(CNc3ccc(C(=O)N[C@@H](CCC(=O)O)C(=O)O)cc3)cnc2[nH]1 [Folic acid]	-0.57
c1ccc(CNc2ncnc3[nH]cnc23)cc1 [Aminopurine, 6-benzyl]	-0.027
O=C1Cc2cc(CCN3CCN(c4nsc5ccccc45)CC3)c(Cl)cc2N1 [Ziprasidone Hydrochloride]	-0.279
CO/N=C(\C(=O)N[C@@H]1C(=O)N2C(C(=O)O)=C(COC(C)=O)CS[C@H]12)c1csc(N)n1 [Cefotaxime sodium salt]	3.35
Cc1nc2ccc(CN(C)c3ccc(C(=O)N[C@@H](CCC(=O)O)C(=O)O)s3)cc2c(=O)[nH]1 [Raltitrexed]	-1.033
CC(C)COCC(CN(Cc1ccccc1)c1ccccc1)N1CCCC1 (centres unmarked) [Bepridil hydrochloride]	1.07
CC(=O)OCC(=O)[C@@]12N=C(C)O[C@@H]1C[C@H]1[C@@H]3CCC4=CC(=O)C=C[C@]4(C)[C@H]3[C@@H](O)C[C@@]12C [Deflazacort]	0.131
Cc1ccc(-c2ncc(Cl)cc2-c2ccc(S(C)(=O)=O)cc2)cn1 [Etoricoxib]	-0.663
S=c1[nH]cnc2nc[nH]c12 [Mercaptopurine]	-0.084
COc1cc(-c2ccc(=O)[nH]n2)ccc1OC(F)F [Zardaverine]	-1.701
Nc1ccc(S(=O)(=O)Nc2nccs2)cc1 [Sulfathiazole]	-1.223
CC1(C)[C@H](C(=O)O)N2C(=O)C[C@H]2S1(=O)=O [Sulbactam]	1.339
CCCN[C@H]1CCc2nc(N)sc2C1 [Pramipexole dihydrochloride]	-1.48
CN1CCN(C2=Nc3ccccc3Oc3ccc(Cl)cc32)CC1 [Loxapine succinate]	-1.397
CC(C)C(=O)Nc1ccc([N+](=O)[O-])c(C(F)(F)F)c1 [Flutamide]	-1.233
C[C@]12CCC(=O)C=C1C=C[C@@H]1[C@@H]2CC[C@@]2(C)[C@H]1CC[C@@]21CCC(=O)O1 [Canrenone]	-0.551
O=C1O[C@H]([C@@H](O)CO)C(O)=C1O [Ascorbic acid]	-1.672
CC(CCc1ccccc1)NC(C)C(O)c1ccc(O)cc1 (centres unmarked) [Nylidrin]	-0.121
Brc1c(NC2=NCCN2)ccc2nccnc12.O=C(O)C(O)C(O)C(=O)O [Brimondine L-Tartrate]	-1.091
CN(N=O)C(=O)N[C@H]1C(O)O[C@H](CO)[C@@H](O)[C@@H]1O (mixture of isomers) [Streptozotocin]	-0.84
CSc1ccc2c(c1)C(N1CCN(C)CC1)Cc1ccccc1S2.O=C(O)/C=C\C(=O)O (centres unmarked) [Methiothepin maleate]	4.841
CN1C[C@H](C(=O)N[C@]2(C)O[C@@]3(O)[C@@H]4CCCN4C(=O)[C@H](Cc4ccccc4)N3C2=O)C[C@@H]2c3cccc4[nH]cc(c34)C[C@H]21.CN1C[C@H](C(=O)N[C@]2(C)O[C@@]3(O)[C@@H]4CCCN4C(=O)[C@H](Cc4ccccc4)N3C2=O)C[C@@H]2c3cccc4[nH]cc(c34)C[C@H]21.O=C(O)C(O)C(O)C(=O)O [Dihydroergotamine tartrate]	0.679
CC[N+](C)(C)c1cccc(O)c1 [Edrophonium chloride]	-1.061
COC(=O)C1=C(C)NC(C)=C(C(=O)OCCN(C)Cc2ccccc2)C1c1cccc([N+](=O)[O-])c1 (centres unmarked) [Nicardipine hydrochloride]	-0.022
COc1nc(C)nc(Cl)c1N=C1NCCN1 [Moxonidine]	-0.211
CCCCOc1cc(C(=O)OCCN(CC)CC)ccc1N [Benoxinate hydrochloride]	0.537
Cl.Cl.Fc1ccc(C(OCCN2CCN(CCCc3ccccc3)CC2)c2ccc(F)cc2)cc1 [GBR 12909 dihydrochloride]	-0.602

###

- TEST TARGET: UniProtKB Q14973
- Sequence (Q14973 1-349): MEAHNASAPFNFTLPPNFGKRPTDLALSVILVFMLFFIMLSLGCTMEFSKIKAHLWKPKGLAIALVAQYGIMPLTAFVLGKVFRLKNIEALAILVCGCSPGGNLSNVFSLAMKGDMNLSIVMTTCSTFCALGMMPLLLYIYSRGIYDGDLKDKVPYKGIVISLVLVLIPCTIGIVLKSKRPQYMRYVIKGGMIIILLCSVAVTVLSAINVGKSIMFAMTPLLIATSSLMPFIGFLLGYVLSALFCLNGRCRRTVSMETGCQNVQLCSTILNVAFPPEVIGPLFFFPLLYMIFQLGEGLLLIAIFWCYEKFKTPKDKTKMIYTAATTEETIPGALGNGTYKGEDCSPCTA
- ASSAY: Screening taurocholate uptake assay (96-well, [14C]taurocholate, 10 µM drug)
- EXPERIMENTAL CONDITIONS: Prestwick library screen, 10 µM drug; B-score of taurocholate uptake
Structures can show the parent of a compound that is named as a salt.
The label class 1 is reserved for B-score functional assay strictly under 0.7; class 0 covers values equal to or above it.

> print(dat)
                                   compound  class.label
1  CN(CCCCCCCCCCN(C)C(=O)Oc1cccc([N+](C)(C)C)c1)C(=O)Oc1cccc([N+](C)(C)C)c1 [Demecarium bromide]      class 1
2  CCCOc1ccc(C(=O)OCCN(CC)CC)cc1N [Proparacaine hydrochloride]      class 1
3                c1ccc2[nH]c(-c3cscn3)nc2c1      class 0
4              CC(C)(S)C(N)C(=O)O (racemic)      class 1
5  Cc1c(OCC(F)(F)F)ccnc1C[S+]([O-])c1nc2ccccc2[nH]1 (centres unmarked)      class 0
6  CC(=O)OCC1=C(C(=O)O)N2C(=O)[C@@H](N)[C@H]2SC1      class 1
7  Cc1cn([C@H]2C[C@H](N=[N+]=[N-])[C@@H](CO)O2)c(=O)[nH]c1=O      class 0
